target: SHP2-C SH2; assay: SH2 binding enrichment of the phosphorylated peptide, bacterial display (enrichment ratio); higher = better substrate or ligand; peptides without Tyr show the background;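 note: peptide library displayed on the E. coli surface as eCPX fusions, selected cells deep-sequenced, score is each peptide's frequency after selection divided by its frequency in the input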
metric name: SH2 binding enrichment

Worked examples, 3 sequences total:
construct sequence: RGMVMYTSKDR [ZG16B_Y136]
SH2 binding enrichment: 0.584
--
construct sequence: ENELTYYCYKK [CD59_Y86_C89Y]
SH2 binding enrichment: 0.65
--
construct sequence: KLKNAYEESLE [MYH7_Y1488]
SH2 binding enrichment: 0.761

A. SSENPCATIKD [MEGF10_Y1030_Y1030C]
B. QDGYSYLSRQM [LDLR_Y847_P848L]
Lab note: check whether A or B has the lower measured SH2 binding enrichment. Answer format: the label of the selected item.
A
